Target Of Assay: α-1A adrenoceptor (dog prostate) (Canis lupus)
Sequence (A0A8I3NK63 1-466): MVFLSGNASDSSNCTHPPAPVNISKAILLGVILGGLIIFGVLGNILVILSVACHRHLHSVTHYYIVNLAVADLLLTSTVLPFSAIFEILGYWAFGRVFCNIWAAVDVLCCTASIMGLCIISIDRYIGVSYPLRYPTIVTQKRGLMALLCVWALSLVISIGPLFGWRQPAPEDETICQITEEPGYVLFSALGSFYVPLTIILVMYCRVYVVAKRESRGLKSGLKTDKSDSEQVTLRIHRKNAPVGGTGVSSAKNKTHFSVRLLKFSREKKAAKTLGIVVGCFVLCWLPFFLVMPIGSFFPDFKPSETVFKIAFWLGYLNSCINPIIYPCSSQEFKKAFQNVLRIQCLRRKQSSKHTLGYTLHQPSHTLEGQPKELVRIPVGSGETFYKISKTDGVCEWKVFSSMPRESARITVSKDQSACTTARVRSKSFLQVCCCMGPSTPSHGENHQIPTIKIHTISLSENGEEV
Assay Summary: Functional antagonism: phenylephrine (PE)-induced contraction of canine prostate strips
Type: cell-based
Condition Description: Table 2b; vs phenylephrine; Schild plot
Where a name gives a salt, the structure may show the parent alone.
Value Type: pA2 Dog Prostate [α-1A]

Compound	pA2 Dog Prostate [α-1A]
COc1cccc2c1CC[C@H]1CN(CCn3c(=O)[nH]c4c(sc5cccc(C#N)c54)c3=O)C[C@@H]21 [Example 54, hydrochloride]	8.74
COc1cccc2c1CC[C@H]1CN(CCn3c(=O)[nH]c4cc5ccccc5cc4c3=O)C[C@@H]21 (relative stereo) [Example 21, hydrochloride]	7.43
COc1cccc2c1CC[C@H]1CN(CCn3c(=O)[nH]c4c(sc5ccncc54)c3=O)C[C@@H]21 [Example 38, dihydrochloride]	9.75
COc1cccc2c1[C@@H]1CN(CCCCn3c(=O)[nH]c4c(sc5cccnc54)c3=O)C[C@@H]1CC2 [Example 79, dihydrochloride]	8.77
COc1cccc2c1CC[C@H]1CN(CCn3c(=O)[nH]c4c(oc5ccccc54)c3=O)C[C@@H]21 (relative stereo) [Example 3, hydrochloride]	8.4
COCCn1c(=O)n(CCN2C[C@@H]3CCc4c(OC)cccc4[C@@H]3C2)c(=O)c2sc3cccnc3c21 [Example 105, hydrochloride]	8.58
COc1cccc2c1CC[C@H]1CN(CCn3c(=O)[nH]c4c([nH]c5ccncc54)c3=O)C[C@@H]21 [Example 97, hydrochloride]	9.66
COc1cccc2c1CC[C@H]1CN(CCn3c(=O)[nH]c4c(oc5ncccc54)c3=O)C[C@@H]21 (relative stereo) [Example 27, hydrochloride]	8.72
CCCCn1c(=O)n(CCN2C[C@@H]3CCc4c(OC)cccc4[C@@H]3C2)c(=O)c2sc3nccnc3c21 [Example 101, hydrochloride]	7.31
COc1cccc2c1CC[C@H]1CN(CCN3CNc4c(sc5ncccc45)C3=O)C[C@@H]21 [Example 70, dihydrochloride]	8.57
COc1cccc2c1CC[C@H]1CN(CCn3c(=O)[nH]c4c(sc5ccc(Cl)cc54)c3=O)C[C@@H]21 [Example 67, hydrochloride]	8.98
COc1cccc2c1CC[C@H]1CN(CCn3c(=O)[nH]c4sc5c(c4c3=O)CCCC5)C[C@@H]21 (relative stereo) [Example 7, hydrochloride]	7.85
COCCn1c(=O)n(CCN2C[C@@H]3CCc4c(OC)cccc4[C@@H]3C2)c(=O)c2sc3nccnc3c21 [Example 104, hydrochloride]	9.74

====

Target Of Assay: α-1A adrenoceptor (rat vas deferens) (Rattus norvegicus)
Construct: PE-induced contraction of rat vas deferens; from tissue; host or cells: rat vas deferens
Sequence (P43140 whole entry): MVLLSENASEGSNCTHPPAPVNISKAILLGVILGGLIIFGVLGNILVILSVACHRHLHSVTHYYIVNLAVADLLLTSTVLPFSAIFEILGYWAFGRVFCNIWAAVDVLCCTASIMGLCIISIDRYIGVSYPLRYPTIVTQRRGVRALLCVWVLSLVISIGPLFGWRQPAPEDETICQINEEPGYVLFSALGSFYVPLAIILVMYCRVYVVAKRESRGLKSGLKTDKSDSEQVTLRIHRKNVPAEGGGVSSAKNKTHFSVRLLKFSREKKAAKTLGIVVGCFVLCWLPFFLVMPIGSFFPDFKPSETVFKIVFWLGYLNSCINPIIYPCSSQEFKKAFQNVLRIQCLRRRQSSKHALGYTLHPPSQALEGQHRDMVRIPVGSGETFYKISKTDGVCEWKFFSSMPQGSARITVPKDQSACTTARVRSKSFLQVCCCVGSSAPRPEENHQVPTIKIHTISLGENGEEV
Assay Summary: Functional antagonism: phenylephrine (PE)-induced contraction of rat vas deferens
Type: cell-based
Condition Description: vs phenylephrine; Schild plot; read-out: pA2 Rat Vas Deferens [α-1A] (converted)
Structures can show the parent of a compound that is named as a salt.
Value Type: Kb (nM)

Example compounds with recorded Kb:
Compound	Unit Abbrev	Kb
COc1cccc2c1CC[C@H]1CN(CCn3c(=O)[nH]c4c(ccc5ccccc54)c3=O)C[C@@H]21 (relative stereo) [Example 25, hydrochloride]	nM	2.19
COc1cccc2c1CC[C@@H]1CN(CCn3c(=O)[nH]c4c(oc5ccccc54)c3=O)C[C@@H]21 (relative stereo) [Example 18, hydrochloride]	nM	13.8

1. COc1cnc2c(n1)sc1c(=O)n(CCN3C[C@@H]4CCc5c(OC)cccc5[C@@H]4C3)c(=O)[nH]c12 [Example 89, hydrochloride]
2. COc1cccc2c1CC[C@@H]1CN(CCn3c(=O)[nH]c4c(sc5ccccc54)c3=O)C[C@@H]21 (relative stereo) [Example 10, hydrochloride]
Exercise: Between the entries labeled 1 and 2 , whose measured Kb is lower? Refer to your chosen entry by its label in the reply.
Solution: 1
